Tested on: 439559-082-T-J2-PDC complex spheroid growth
ASSAY OVERVIEW: Anticancer human tumor 439559-082-T-J2-PDC patient-derived colon adenocarcinoma cell line growth inhibition [Asc]
CONDITIONS: second compound 0.0949 µM; first compound 3.16 µM; stronger effect = lower value
viability, T/C by entry:
Express it in %; write the number only.

O=C(c1cc(Cc2n[nH]c(=O)c3ccccc23)ccc1F)N1CCN(C(=O)C2CC2)CC1 + CCN1C(C(=O)NC23CCC(C(=O)O)(CC2)CC3)C(c2cccc(Cl)c2F)C2(C(=O)Nc3cc(Cl)ccc32)C12CCCCC2 : 93.4
C#Cc1c(F)ccc2cc(O)cc(-c3ncc4c(N5CC6CCC(C5)N6)nc(OCC56CCCN5CC(F)C6)nc4c3F)c12 (centres undefined) + CCN1C(C(=O)NC23CCC(C(=O)O)(CC2)CC3)C(c2cccc(Cl)c2F)C2(C(=O)Nc3cc(Cl)ccc32)C12CCCCC2 : 49.7
C=C(F)C(=O)N1CCN(c2nc(OCC3CCCN3C)nc3c2CCN(c2cccc4cccc(Cl)c24)C3)CC1CC#N (centres undefined) + CCN1C(C(=O)NC23CCC(C(=O)O)(CC2)CC3)C(c2cccc(Cl)c2F)C2(C(=O)Nc3cc(Cl)ccc32)C12CCCCC2 : 82.8

Input C=CC(=O)N1CCN(c2nc(=O)n(-c3c(C)ccnc3C(C)C)c3nc(-c4c(O)cccc4F)c(F)cc23)C(C)C1 (centres undefined) + CCN1C(C(=O)NC23CCC(C(=O)O)(CC2)CC3)C(c2cccc(Cl)c2F)C2(C(=O)Nc3cc(Cl)ccc32)C12CCCCC2 . Output viability, T/C: 101

###

Tested on: 439559-082-T-J2-PDC complex spheroid growth
ASSAY OVERVIEW: Anticancer human tumor 439559-082-T-J2-PDC cell line growth inhibition [Asc];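 note: spheroids exposed to agents for 7 days starting day 3 after seeding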;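 for viability, T/C: percent of DMSO vehicle control viability with 100% = vehicle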
CONDITIONS: second compound 0.1 µM; first compound 0.001 µM; stronger effect = lower value
RESULT TYPE: viability, T/C (%)
Express it in %; write the number only.

Known results for compounds:
Cn1ncnc1[C@H]1c2n[nH]c(=O)c3cc(F)cc(c23)N[C@@H]1c1ccc(F)cc1 + CNC(C)C(=O)NC1CN(S(=O)(=O)c2cccc(S(=O)(=O)N3CCC4CCC(C(=O)NC(c5ccccc5)c5ccccc5)N4C(=O)C(NC(=O)C(C)NC)C3)c2)CCC2CCC(C(=O)NC(c3ccccc3)c3ccccc3)N2C1=O : 101
Cn1ncnc1[C@H]1c2n[nH]c(=O)c3cc(F)cc(c23)N[C@@H]1c1ccc(F)cc1 + Cc1c(S(C)(=O)=O)c(-c2cc(F)cc(N3CCN(c4ccc(NS(=O)(=O)c5ccc(NC(CCN6CCC(C(=O)OCCCP(=O)(O)O)CC6)CSc6ccccc6)c(S(=O)(=O)C(F)(F)F)c5)cc4)CC3)c2)c(-c2ccc(Cl)cc2)n1C(C)C : 106
NC1CCC(NC2CC2c2ccccc2)CC1 (centres undefined) + Cc1c(S(C)(=O)=O)c(-c2cc(F)cc(N3CCN(c4ccc(NS(=O)(=O)c5ccc(NC(CCN6CCC(C(=O)OCCCP(=O)(O)O)CC6)CSc6ccccc6)c(S(=O)(=O)C(F)(F)F)c5)cc4)CC3)c2)c(-c2ccc(Cl)cc2)n1C(C)C : 115

Please turn your attention to the following entry.
Input NC1CCC(NC2CC2c2ccccc2)CC1 (centres undefined) + CNC(C)C(=O)NC1CN(S(=O)(=O)c2cccc(S(=O)(=O)N3CCC4CCC(C(=O)NC(c5ccccc5)c5ccccc5)N4C(=O)C(NC(=O)C(C)NC)C3)c2)CCC2CCC(C(=O)NC(c3ccccc3)c3ccccc3)N2C1=O . Output viability, T/C: 101

###

System: 439559-082-T-J2-PDC complex spheroid growth
ASSAY OVERVIEW: Anticancer human tumor 439559-082-T-J2-PDC cell line growth inhibition [Asc];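 note: spheroids exposed to agents for 7 days starting day 3 after seeding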
CONDITIONS: curve of first compound; second compound 0.1 µM
RESULT TYPE: IC50 (nM)
Express it in nM; write the number only.

Input C#Cc1c(F)ccc2cc(O)cc(-c3ncc4c(N5CC6CCC(C5)N6)nc(OCC56CCCN5CC(F)C6)nc4c3F)c12 (configuration not stated) + CNC(C)C(=O)NC1CN(S(=O)(=O)c2cccc(S(=O)(=O)N3CCC4CCC(C(=O)NC(c5ccccc5)c5ccccc5)N4C(=O)C(NC(=O)C(C)NC)C3)c2)CCC2CCC(C(=O)NC(c3ccccc3)c3ccccc3)N2C1=O . Output IC50: 1910

###

System: 439559-082-T-J2-PDC complex spheroid growth
ASSAY OVERVIEW: Anticancer human tumor 439559-082-T-J2-PDC cell line growth inhibition [Asc];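 note: spheroids exposed to agents for 7 days starting day 3 after seeding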;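 for viability, T/C: percent of DMSO vehicle control viability with 100% = vehicle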
CONDITIONS: second compound 10 µM; first compound 0.0316 µM; stronger effect = lower value
RESULT TYPE: viability, T/C

Known results for compounds:
CCN1CCN(Cc2ccc(Nc3ncc(F)c(-c4cc(F)c5nc(C)n(C(C)C)c5c4)n3)nc2)CC1 + Cc1c(S(C)(=O)=O)c(-c2cc(F)cc(N3CCN(c4ccc(NS(=O)(=O)c5ccc(NC(CCN6CCC(C(=O)OCCCP(=O)(O)O)CC6)CSc6ccccc6)c(S(=O)(=O)C(F)(F)F)c5)cc4)CC3)c2)c(-c2ccc(Cl)cc2)n1C(C)C : 83.2%
C#Cc1c(F)ccc2cc(O)cc(-c3ncc4c(N5CC6CCC(C5)N6)nc(OCC56CCCN5CC(F)C6)nc4c3F)c12 (stereo unspecified) + Cc1c(S(C)(=O)=O)c(-c2cc(F)cc(N3CCN(c4ccc(NS(=O)(=O)c5ccc(NC(CCN6CCC(C(=O)OCCCP(=O)(O)O)CC6)CSc6ccccc6)c(S(=O)(=O)C(F)(F)F)c5)cc4)CC3)c2)c(-c2ccc(Cl)cc2)n1C(C)C : 56.7%
COc1c(OCCCN2CCOCC2)ccc2c3n(c(=NC(=O)c4cnc(N)nc4)nc12)CCN3 + Cc1c(S(C)(=O)=O)c(-c2cc(F)cc(N3CCN(c4ccc(NS(=O)(=O)c5ccc(NC(CCN6CCC(C(=O)OCCCP(=O)(O)O)CC6)CSc6ccccc6)c(S(=O)(=O)C(F)(F)F)c5)cc4)CC3)c2)c(-c2ccc(Cl)cc2)n1C(C)C : 72%
C=C(F)C(=O)N1CCN(c2nc(OCC3CCCN3C)nc3c2CCN(c2cccc4cccc(Cl)c24)C3)CC1CC#N (stereo unspecified) + Cc1c(S(C)(=O)=O)c(-c2cc(F)cc(N3CCN(c4ccc(NS(=O)(=O)c5ccc(NC(CCN6CCC(C(=O)OCCCP(=O)(O)O)CC6)CSc6ccccc6)c(S(=O)(=O)C(F)(F)F)c5)cc4)CC3)c2)c(-c2ccc(Cl)cc2)n1C(C)C : 68%
O=C(c1ccc(F)c(F)c1Nc1ccc(I)cc1F)N1CC(O)([C@@H]2CCCCN2)C1 + Cc1c(S(C)(=O)=O)c(-c2cc(F)cc(N3CCN(c4ccc(NS(=O)(=O)c5ccc(NC(CCN6CCC(C(=O)OCCCP(=O)(O)O)CC6)CSc6ccccc6)c(S(=O)(=O)C(F)(F)F)c5)cc4)CC3)c2)c(-c2ccc(Cl)cc2)n1C(C)C : 68.3%

Query CNC(C)C(=O)NC1CN(S(=O)(=O)c2cccc(S(=O)(=O)N3CCC4CCC(C(=O)NC(c5ccccc5)c5ccccc5)N4C(=O)C(NC(=O)C(C)NC)C3)c2)CCC2CCC(C(=O)NC(c3ccccc3)c3ccccc3)N2C1=O (stereo unspecified) + Cc1c(S(C)(=O)=O)c(-c2cc(F)cc(N3CCN(c4ccc(NS(=O)(=O)c5ccc(NC(CCN6CCC(C(=O)OCCCP(=O)(O)O)CC6)CSc6ccccc6)c(S(=O)(=O)C(F)(F)F)c5)cc4)CC3)c2)c(-c2ccc(Cl)cc2)n1C(C)C on 439559-082-T-J2-PDC complex spheroid growth; viability, T/C returned: 90.6%

###

Test system: 439559-082-T-J2-PDC complex spheroid growth
ASSAY OVERVIEW: Anticancer human tumor 439559-082-T-J2-PDC cell line growth inhibition [Asc];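 note: spheroids exposed to agents for 7 days starting day 3 after seeding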;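 for viability, T/C: percent of DMSO vehicle control viability with 100% = vehicle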
CONDITIONS: second compound 0.03 µM; first compound 0.0316 µM; stronger effect = lower value
viability, T/C by entry:
Express it in %; write the number only.

Known results for compounds:
CCN1CCN(Cc2ccc(Nc3ncc(F)c(-c4cc(F)c5nc(C)n(C(C)C)c5c4)n3)nc2)CC1 + CCN1C(C(=O)NC23CCC(C(=O)O)(CC2)CC3)C(c2cccc(Cl)c2F)C2(C(=O)Nc3cc(Cl)ccc32)C12CCCCC2 : 94.4
C=CC(=O)N1CCN(c2nc(=O)n(-c3c(C)ccnc3C(C)C)c3nc(-c4c(O)cccc4F)c(F)cc23)C(C)C1 (stereo not given) + CCN1C(C(=O)NC23CCC(C(=O)O)(CC2)CC3)C(c2cccc(Cl)c2F)C2(C(=O)Nc3cc(Cl)ccc32)C12CCCCC2 : 108
NC1CCC(NC2CC2c2ccccc2)CC1 (stereo not given) + CCN1C(C(=O)NC23CCC(C(=O)O)(CC2)CC3)C(c2cccc(Cl)c2F)C2(C(=O)Nc3cc(Cl)ccc32)C12CCCCC2 : 102
COc1c(OCCCN2CCOCC2)ccc2c3n(c(=NC(=O)c4cnc(N)nc4)nc12)CCN3 + CCN1C(C(=O)NC23CCC(C(=O)O)(CC2)CC3)C(c2cccc(Cl)c2F)C2(C(=O)Nc3cc(Cl)ccc32)C12CCCCC2 : 94.1
C=C(F)C(=O)N1CCN(c2nc(OCC3CCCN3C)nc3c2CCN(c2cccc4cccc(Cl)c24)C3)CC1CC#N (stereo not given) + CCN1C(C(=O)NC23CCC(C(=O)O)(CC2)CC3)C(c2cccc(Cl)c2F)C2(C(=O)Nc3cc(Cl)ccc32)C12CCCCC2 : 102

Please turn your attention to the following entry.
Query CNC(C)C(=O)NC1CN(S(=O)(=O)c2cccc(S(=O)(=O)N3CCC4CCC(C(=O)NC(c5ccccc5)c5ccccc5)N4C(=O)C(NC(=O)C(C)NC)C3)c2)CCC2CCC(C(=O)NC(c3ccccc3)c3ccccc3)N2C1=O (stereo not given) + CCN1C(C(=O)NC23CCC(C(=O)O)(CC2)CC3)C(c2cccc(Cl)c2F)C2(C(=O)Nc3cc(Cl)ccc32)C12CCCCC2 on 439559-082-T-J2-PDC complex spheroid growth; viability, T/C returned: 109
